For each entry below, report its Kd value.
target: T1, Human complement Factor D, mature (human, UniProt P00746 27-253); assay: SPR, at the limit of detection
T1 construct: In the TR-FRET assay the factor D was bought from Complement Technology; In the hemolysis assay it was the factor D of C1q-depleted human serum; also called human Factor D; hFD
T1 sequence (P00746 27-253): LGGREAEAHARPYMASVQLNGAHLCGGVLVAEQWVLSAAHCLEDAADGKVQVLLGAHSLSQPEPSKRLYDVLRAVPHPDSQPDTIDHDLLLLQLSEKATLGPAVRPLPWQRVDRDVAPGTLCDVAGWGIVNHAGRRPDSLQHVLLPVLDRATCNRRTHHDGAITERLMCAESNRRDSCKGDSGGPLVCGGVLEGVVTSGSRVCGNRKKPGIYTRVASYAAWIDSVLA

Lookup: I have this binder here, hu20D12.v2.1 Fab (Fab, V domains shown) VH: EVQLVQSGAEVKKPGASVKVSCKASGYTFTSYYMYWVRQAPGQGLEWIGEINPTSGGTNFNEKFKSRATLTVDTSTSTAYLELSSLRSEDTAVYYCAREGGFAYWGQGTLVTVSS VL: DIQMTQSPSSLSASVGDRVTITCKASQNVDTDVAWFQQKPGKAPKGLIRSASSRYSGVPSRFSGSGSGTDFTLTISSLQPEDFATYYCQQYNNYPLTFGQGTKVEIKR , and I need its recorded Kd.
Found: ~0.01 nM

Lookup: // query: hu20D12.v2.14 Fab (Fab, V domains shown) VH: EVQLVQSGAEVKKPGASVKVSCKASGYTFTSYYMYWVRQAPGQGLEWIGEINPTSGETNFNEKFKSRATLTVDTSTSTAYLELSSLRSEDTAVYYCAREGGFAYWGQGTLVTVSS VL: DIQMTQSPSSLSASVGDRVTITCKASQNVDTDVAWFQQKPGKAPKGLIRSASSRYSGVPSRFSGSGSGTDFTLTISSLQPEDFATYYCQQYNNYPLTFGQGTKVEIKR
Found: ~0.01 nM

Lookup: Do the same for hu20D12.v2.13 Fab (Fab, V domains shown) VH: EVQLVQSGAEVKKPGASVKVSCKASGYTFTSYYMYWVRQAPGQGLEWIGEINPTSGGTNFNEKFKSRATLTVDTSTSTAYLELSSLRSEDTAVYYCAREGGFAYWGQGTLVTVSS VL: DIQMTQSPSSLSASVGDRVTITCKASQNVDTDVAWFQQKPGKAPKGLIRSASSRYSGVPSRFSGSGSGTDFTLTISSLQPEDFATYYCQQYENYPLTFGQGTKVEIKR please
Found: ~0.01 nM

Lookup: Also need hu20D12.v2.15 Fab (Fab, V domains shown) VH: EVQLVQSGAEVKKPGASVKVSCKASGYTFTSYYMYWVRQAPGQGLEWIGEINPYSGETNFNEKFKSRATLTVDTSTSTAYLELSSLRSEDTAVYYCAREGGFAYWGQGTLVTVSS VL: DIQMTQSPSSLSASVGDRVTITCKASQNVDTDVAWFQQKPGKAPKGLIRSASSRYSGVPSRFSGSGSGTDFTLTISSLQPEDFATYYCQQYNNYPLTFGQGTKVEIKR , thanks.
Found: ~0.01 nM

Lookup: Now try hu20D12.v2.12 Fab (Fab, V domains shown) VH: EVQLVQSGAEVKKPGASVKVSCKASGYTFTSYYMYWVRQAPGQGLEWIGEINPYSGGTNFNEKFKSRATLTVDTSTSTAYLELSSLRSEDTAVYYCAREGGFAYWGQGTLVTVSS VL: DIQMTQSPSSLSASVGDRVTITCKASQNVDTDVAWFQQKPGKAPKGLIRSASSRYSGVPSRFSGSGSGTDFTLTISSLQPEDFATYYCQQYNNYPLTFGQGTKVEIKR .
Found: ~0.01 nM

Lookup: Next binder up: hu20D12.v2.3 Fab (Fab, V domains shown) VH: EVQLVQSGAEVKKPGASVKVSCKASGYTFTSYYMYWVRQAPGQGLEWIGEINPYSGDTNFNEKFKSRATLTVDTSTSTAYLELSSLRSEDTAVYYCAREGGFAYWGQGTLVTVSS VL: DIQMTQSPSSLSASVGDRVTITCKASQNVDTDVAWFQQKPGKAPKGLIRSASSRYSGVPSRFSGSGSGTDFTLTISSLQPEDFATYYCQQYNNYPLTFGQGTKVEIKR
Found: ~0.01 nM
